- System: MCF-7 (breast cancer)
- ASSAY PROTOCOL: MTT cytotoxicity assay, MCF-7 cells
- Assay type: cell-based, human
- CONDITION PARAMETERS: Homo sapiens, MCF7, 72 h, MCF-7, c 32.00 μM, three replicates; read-out: cell inhibition
Please enter Met where inhibition at 32 µM is greater than or equal to 40%, and Not met where it is lower.

Exercise: Does the reported inhibition at 32 µM for C/C(=C\C=C\[C@]1(C)OC(=O)[C@@H](C)[C@@H]1O)[C@H](C)O fall at or above the 40% mark?
Solution: Not met

Exercise: Does the reported inhibition at 32 µM for CC1(O)CC2OC23C(C)(C)C(Cl)CCC3(C)C1C(=O)O (stereo not drawn) fall at or above the 40% mark?
Solution: Not met

Exercise: Does the reported inhibition at 32 µM for CCCC(O)C1=C(C)C(=O)C(C)C1 (stereo not drawn) fall at or above the 40% mark?
Solution: Met

Exercise: Does the reported inhibition at 32 µM for CCCC(O)C1=C(C)C(=O)CC1C (stereo not drawn) fall at or above the 40% mark?
Solution: Not met

Exercise: Does the reported inhibition at 32 µM for CC(C)[C@@H](C)/C=C/[C@@H](C)[C@H]1CCC(=O)[C@]23CC(=O)C4=CC(=O)CC[C@]4(C)[C@H]2CC[C@]13C fall at or above the 40% mark?
Solution: Met

Exercise: Does the reported inhibition at 32 µM for COc1cccc2c1C(=O)c1c(O)c3c(c(O)c1C2=O)C[C@@](O)(C(=O)CO)C[C@@H]3O[C@H]1C[C@H](N)[C@H](O)[C@H](C)O1 [Adriamycin, reference compound] fall at or above the 40% mark?
Solution: Met

Exercise: Does the reported inhibition at 32 µM for CC(C)[C@@H](C)C=C[C@@H](C)[C@H]1CC[C@@]2(O)C3=CC(=O)C4=CC(=O)CC[C@]4(C)[C@H]3CC[C@]12C fall at or above the 40% mark?
Solution: Met

Exercise: Does the reported inhibition at 32 µM for CC(C)[C@@H](C)/C=C/[C@@H](C)C1CCC2C3=CC(=O)OC4=CC(=O)CC[C@]4(C)C3CC[C@@]21C (stereo partly drawn) fall at or above the 40% mark?
Solution: Met

Exercise: Does the reported inhibition at 32 µM for CC(=O)OC(C)C(C)=CC=CC1(C)OC(=O)C(C)C1O (stereo not drawn) fall at or above the 40% mark?
Solution: Not met
